# Tested on: NCI-H460
# test: Cell viability panel, ATPlite 1Step
# Type: cell-based
# assay.context: Homo sapiens, Large cell lung carcinoma, 72 h exposure, read-out: Compound EC50
measurement.label: EC50

Query: Query the reported EC50 for NCI-H460; item: CN(C)CCCS(=O)(=O)N1C/C(=C\c2ccc(C#N)cc2)C(=O)/C(=C/c2ccc(C#N)cc2)C1
Result: < 300 nM

----------
# System: RPMI-7951
# test: Cell viability panel, ATPlite 1Step
# Assay type: cell-based
# assay.context: Homo sapiens, Melanoma, 72 h exposure, read-out: Compound EC50
pEC50: −log10 of the molar value.
measurement.label: pEC50

Query: Can you look up the measured pEC50 of CN(C)CCCS(=O)(=O)N1C/C(=C\c2ccc(C#N)cc2)C(=O)/C(=C/c2ccc(C#N)cc2)C1 for me?
Result: > 6.52

----------
# Test system: SK-MEL-28
# test: Cell viability panel, CyQUANT Direct
# Assay type: cell-based
# assay.context: Homo sapiens, Melanoma, 48 hours, read-out: Compound EC50
# Protocol: Cell viability panel studies. Cells were diluted in the corresponding ATCC recommended medium and dispensed in a 384-well plate, depending on the cell line used, at a density of 200-6400 cells per well. For each used cell line, the optimal cell density was used. […] Following incubation at 37° C. for 48 hours with increasing concentrations of the compounds, viability was determined with CyQUANT® Direct Assay Kit (Invitrogen). […]
measurement.label: EC50

Query: Can you look up the measured EC50 of CN(C)CCCS(=O)(=O)N1C/C(=C\c2ccc(C#N)cc2)C(=O)/C(=C/c2ccc(C#N)cc2)C1 for me?
Result: < 300 nM

----------
# System: SK-MEL-5
# test: NCI60 screen cytotoxicity
# Assay type: cell-based
# assay.context: Homo sapiens, Melanoma, read-out: Compound B1 EC50
measurement.label: EC50

Query: Can you look up the measured EC50 of CN(C)CC(=O)NCC(=O)N1C/C(=C\c2ccc(C#N)cc2)C(=O)/C(=C/c2ccc(C#N)cc2)C1 for me?
Result: 300 to 1000 nM

----------
# Tested on: HOP-62
# test: NCI60 screen cytotoxicity
# Assay type: cell-based
# assay.context: Homo sapiens, Lung cancer, read-out: Compound B1 EC50
measurement.label: EC50

Query: Can you look up the measured EC50 of CN(C)CC(=O)NCC(=O)N1C/C(=C\c2ccc(C#N)cc2)C(=O)/C(=C/c2ccc(C#N)cc2)C1 for me?
Result: < 0.3 µM

----------
# Test system: AU-565
# test: Cell viability panel, ATPlite 1Step
# Format: cell-based
# assay.context: Homo sapiens, AU565, Breast adenocarcinoma, 72 h exposure, read-out: Compound EC50
measurement.label: EC50

Query: Can you look up the measured EC50 of CN(C)CCCS(=O)(=O)N1C/C(=C\c2ccc(C#N)cc2)C(=O)/C(=C/c2ccc(C#N)cc2)C1 [Compound AA] for me?
Result: < 300 nM

----------
# Tested on: FaDu
# test: Cell viability panel, ATPlite 1Step
# Type: cell-based
# assay.context: Homo sapiens, Hypopharyngeal squamous cell carcinoma, 72 h exposure, read-out: Compound EC50
pEC50: −log10 of the molar value.
measurement.label: pEC50

Query: Can you look up the measured pEC50 of CN(C)CCCS(=O)(=O)N1C/C(=C\c2ccc(C#N)cc2)C(=O)/C(=C/c2ccc(C#N)cc2)C1 [Compound AA] for me?
Result: > 6.52

These data points were gathered from patent US20200399262A1.
